biological target: Metabotropic glutamate receptor 8 (Rattus norvegicus) (UniProt P70579); assay: mGluR8 Gi/Go-coupled signaling modulation – cell-based, rat, thallium flux, HTS, primary screen (AID 488969); settings: HEK293 rat mGluR8, GIRK (G protein-gated inwardly rectifying potassium channel) thallium flux, FluoZin2; at 10 µM; stronger effect = higher value; submaximal glutamate (EC20) added with thallium
Sequence (P70579 whole entry, looked up): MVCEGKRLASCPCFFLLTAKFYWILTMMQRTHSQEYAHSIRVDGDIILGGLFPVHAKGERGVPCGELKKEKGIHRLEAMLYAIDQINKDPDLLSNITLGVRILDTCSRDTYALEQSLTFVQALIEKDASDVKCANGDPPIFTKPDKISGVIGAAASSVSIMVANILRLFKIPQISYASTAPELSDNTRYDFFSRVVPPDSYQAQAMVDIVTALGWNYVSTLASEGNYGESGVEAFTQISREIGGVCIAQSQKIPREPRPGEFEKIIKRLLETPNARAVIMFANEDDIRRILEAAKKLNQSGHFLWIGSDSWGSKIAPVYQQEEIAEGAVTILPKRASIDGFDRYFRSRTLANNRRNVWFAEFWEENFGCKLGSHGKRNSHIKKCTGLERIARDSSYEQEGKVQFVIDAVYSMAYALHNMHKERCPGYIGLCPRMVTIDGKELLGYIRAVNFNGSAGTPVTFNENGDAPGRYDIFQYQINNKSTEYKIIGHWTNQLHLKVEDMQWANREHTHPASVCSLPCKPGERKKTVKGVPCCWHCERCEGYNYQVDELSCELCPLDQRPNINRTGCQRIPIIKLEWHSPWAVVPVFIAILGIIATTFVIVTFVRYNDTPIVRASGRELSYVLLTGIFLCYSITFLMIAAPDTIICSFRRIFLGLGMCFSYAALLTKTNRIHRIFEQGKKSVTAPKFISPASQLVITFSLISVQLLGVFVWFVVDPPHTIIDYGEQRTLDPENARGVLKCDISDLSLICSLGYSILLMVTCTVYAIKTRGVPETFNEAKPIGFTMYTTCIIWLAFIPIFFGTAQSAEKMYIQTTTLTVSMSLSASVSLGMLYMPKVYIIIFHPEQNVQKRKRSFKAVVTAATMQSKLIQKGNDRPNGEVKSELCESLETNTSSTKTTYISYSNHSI
Over roughly 110,000 compounds, “z-score” has its median near -0.1; the highest 2% begin near 2. The full list was thinned out, with the highest values kept by preference.
# z-score annotations
# respond with the number and nothing more

Record excerpt, results attached:
>>> print(df.to_string())
                                   compound  data_value
0  Cc1cccc(C)c1NC(=O)CSc1nc2ccccc2c(=O)[nH]1       0.493
1    CCS(=O)(=O)c1nc2ccccc2n1CC(=O)N1CCCCC1       0.849
2  COc1ccc(NS(=O)(=O)c2cc(S(C)(=O)=O)ccc2C)cc1      -0.235
3  Cc1c(C(=O)OCC(=O)N2CC(C)OC(C)C2)oc2ccc(Br)cc12 (stereo unspecified)       -0.32

[in] // Input: `CCOc1ccc2nc(NC(=O)c3ccoc3C)sc2c1` . Output its z-score only.
[out] -0.855

[in] Annotate the compound `CCOCCCNC(=O)CN1C(=O)CSc2cc(S(=O)(=O)N3CCCCCC3)ccc21` with its measured z-score.
[out] -0.263

[in] Look up z-score of CCOC(=O)C1CCCN(C(=O)CN2C(=O)COc3ccc(C(C)(C)C)cc32)C1 (stereo unspecified) and report it.
[out] -1.06

[in] Give a short answer stating reported z-score for CCCCOP(=O)(OCCCC)C(O)c1ccc(Br)cc1 (stereo unspecified) .
[out] -0.269

[in] State, in one line, measured z-score of `Cc1cnc(NC(=O)CSc2ccccc2)s1`
[out] -0.175

[in] Please give measured z-score of the following entry: `O=C(Oc1ccc(Br)cc1C(=S)N1CCCC1)c1ccccc1Cl`
[out] -0.0754

[in] Respond only with z-score recorded for `COCCN(Cc1ccccc1)C(=S)Nc1ccc(OC(F)F)cc1`
[out] -0.227
